# Test Summary: protein stability index of a GFP-peptide fusion (GPS, HEK-293T) (PSI 1-6); higher = more stable;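 also: 24-mer peptide tiles fused after GFP, lentivirally expressed, FACS-sorted into six equal bins by GFP/DsRed ratio, decoded by Illumina sequencing, PSI is the read-weighted mean bin number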
# Details: treatment: MLN4924 1 uM, 8 h; c terminus: a fixed tail appended
This listing pairs sequences with measured protein stability index.
Quantity: protein stability index

INSERT INTO measurements (item_sequence, quantitative_readout) VALUES
  ('EVIYPQHSKLTDREKTNICYLSFP [DENND6A]', 2.54),
  ('GKTKKDYQEASNLEQFVTRFLLKE [NECAB1]', 3.36),
  ('QCLVEGCTEKFKTSRDRKDHMVRM [ZNF511]', 3.95),
  ('STYRKRTPVMEGYVEVKEGKTWKQ [LOXL2]', 3.92),
  ('STVKTETISFGSVSPGGVKLEIST [EPB41L3]', 3.06),
  ('RLQCPFEQELLRRQQRLNQLEKPP [FAM107A]', 4.14),
  ('LNIVERYDPKENKWTRVASMSTRR [KLHL20]', 3.39),
  ('HESQQLATETQALAQRTQQDSTRT [TEKT4]', 5.43),
  ('NKKAKRYLLHGLECVVAMHQAQLI [EIF5]', 2.5),
  ('LPHLVALTEQYTVTGLMEATQMMV [RHOBTB2]', 2.86),
  ('SRAANQEQRANDLEQIMESVKSKI [CEP70]', 4.49),
  ('DERTHRSDRPFKCNQCGKCFIQSS [ZNF8]', 3.25),
  ('STIGFKLPNHRAAKRLWKVCVEHH [EPB41L3]', 2.58),
  ('RTSTFDPSHSDNLLHGLNLLWRKQ [KLHL14]', 2.94),
  ('RAILKPRKVCVGGKRRKDEISVDS [PPP2R2B]', 4.1),
  ('FEGEGDYEEGMYADWWQEPDAKGD [P3H4]', 5.35),
  ('LLEERRPADSAQLLSLNSLLPESG [TFE3]', 4.54),
  ('FNYSVGFKDLNESLNALEDQDLDA [APBB1IP]', 3.98),
  ('LLDKLAKENQDIRLLQAQLQAQKE [PBXIP1]', 4.21),
  ('RRGSTPLHMAVERRVRGVVELLLA [RIPK4]', 2.67),
  ('SGRRNWCSYVVTRTISCHVQNGTY [EMID1]', 1.93),
  ('RDRLLNRYRQAGSSGPGNSQNSFL [RPAIN]', 3.56),
  ('AEEYRLKEHYLTFEKSRYETYIHL [PSD2]', 2.01),
  ('KRTIIPTLVEAIKEQDGREVDWEY [DFFB]', 4.36),
  ('DAAHPTNVQRLAEPSQMLKHAVVN [CTNNB1]', 4.62),
  ('MACHRCLVYLGDLSRYQNELAGVD [SMG5]', 2.54),
  ('VSGINHDVTSGDHGDYFRLLLPGI [CPN1]', 2.23);

###

# Test Summary: protein stability index of a GFP-peptide fusion (GPS, HEK-293T) (PSI 1-6); higher = more stable
# Details: treatment: DMSO; c terminus: a fixed tail appended
Quantity: protein stability index

INSERT INTO measurements (item_sequence, quantity, quantitative_readout) VALUES
  ('HALATRASDYSKKSNVLKLKTADW [PSD2]', 'protein stability index', 3.13),
  ('GVMLTWPDGLMYQKFRNQFLSFSM [TMEM120A]', 'protein stability index', 2.89),
  ('ENCLDAKSTSIQVIVKEGGLKLIQ [MLH1]', 'protein stability index', 2.7),
  ('AIFWIVFLLLIVFYTAITKKIFKS [P2RY14]', 'protein stability index', 2.42),
  ('AAETASLEEQLQGWGEVMLMADKV [ARL6IP1]', 'protein stability index', 4.53),
  ('TRAILRERICSEEERAKAKHLARQ [CHCHD3]', 'protein stability index', 3.52),
  ('HNCQLHRISFCADDKTDKRIFTFI [GULP1]', 'protein stability index', 2.61);
